Numbers sourced from the supplement of paper PMC10126150.

system: ATP; assay: switch fluorescence ratio, 500 uM ATP over buffer (Cy3 cluster intensity, sum of 5 cycles each) (fold (ratio)); higher = stronger signal-on switching upon ATP binding; sequences stand for … in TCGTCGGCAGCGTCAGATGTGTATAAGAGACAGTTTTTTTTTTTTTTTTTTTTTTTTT…TC; conditions: aptamer strand: ATP DNA aptamer (quencher-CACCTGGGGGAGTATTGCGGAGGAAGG + anchor), 100 nM annealed; ATP concentration: 500 uM;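 note: ATP exposure 15 min at 22 °C before imaging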
So I've got a bunch of sequences here, and I need their switch fluorescence ratio values.
Numbers only.

Example entries begin here.
switch fluorescence ratio of AAGTTGTGGC on ATP?
1.01

switch fluorescence ratio of ATATTATTGT on ATP?
0.991

switch fluorescence ratio of ATGTGTAAAA on ATP?
0.99

switch fluorescence ratio of ATGGGGTACG on ATP?
0.972

switch fluorescence ratio of CGAGGGCAGG on ATP?
1.08

Kindly give each listed record's switch fluorescence ratio.
1. TTAATATGTA
2. CCAATATTCG
3. TGGAGTACGG
4. CAGGATGGGC

1. 0.99
2. 1.09
3. 1.01
4. 0.977

Kindly give each listed record's switch fluorescence ratio.
1. TTATACAAGT
2. AAGGGGGTGA
3. TAAAATACTT

1: 0.957; 2: 1.01; 3: 1.11

Kindly give each listed record's switch fluorescence ratio.
1. TTTCGGACCT
2. TGGTGTGGGC
3. TCTATTTCGT

1.35
0.985
1.01

Kindly give each listed record's switch fluorescence ratio.
1. AAATAACTTT
2. CTTTTTGTGT
3. GGGGAAGAAA
4. TATTACGAAA
5. TGGTTTATTG
6. AAGAAGAGGA

[1.03, 0.987, 0.995, 1.1, 1.01, 1]

Kindly give each listed record's switch fluorescence ratio.
1. CTGATGTGGG
2. TATTTGATGT
3. TTTGTATGGG
4. GCCGGGGTGC

0.964
0.991
0.972
1.06

Kindly give each listed record's switch fluorescence ratio.
1. AGGGAGTTTT
2. ATTTAGTCGA
3. AGAGGTTGCA
4. ATGGAGAGAG
5. CTCGTGTTGG
6. GTCGAATTAT
7. AAGCGAGGTT

[1.01, 0.952, 0.994, 0.993, 0.989, 0.999, 0.991]

Kindly give each listed record's switch fluorescence ratio.
1. GGGGGTTTAG
2. GGGCGGCACG
3. TCAGTTTACG
4. CAACACGGCA
5. AGGGGGATTG
6. AAATATGACT
7. GGAATTTCTG

1. 1
2. 0.966
3. 0.988
4. 1.11
5. 0.987
6. 1.06
7. 0.945

Kindly give each listed record's switch fluorescence ratio.
1. TATAATAGTA
2. CTAATGATTG
3. ACAAACCACC

1. 1
2. 0.957
3. 1.34

switch fluorescence ratio of ATGTTTGGAC on ATP?
1.01

* * *

So I've got a bunch of sequences here, and I need their switch fluorescence ratio values.
tested on: ATP; test: switch fluorescence ratio, 500 uM ATP over buffer (Cy3 cluster intensity, sum of 5 cycles each) (fold (ratio)); higher = stronger signal-on switching upon ATP binding; sequences stand for … in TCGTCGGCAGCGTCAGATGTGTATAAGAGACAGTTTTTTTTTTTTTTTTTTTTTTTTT…TC; conditions: aptamer strand: ATP DNA aptamer (quencher-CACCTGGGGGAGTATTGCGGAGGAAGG + anchor), 100 nM annealed; ATP concentration: 500 uM;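 note: ATP exposure 15 min at 22 °C before imaging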
Answers are plain numbers.

Bench note: what switch fluorescence ratio did AATAGAACTT show?
1.02

Bench note: what switch fluorescence ratio did GATCGTGAGT show?
1

Bench note: what switch fluorescence ratio did AAACTGGAAA show?
0.99

Bench note: what switch fluorescence ratio did AGGTAGGCCT show?
0.991

Bench note: what switch fluorescence ratio did CGGGGATATT show?
1.11

Kindly give each listed record's switch fluorescence ratio.
1. CGACTGATTA
2. TTTTTTGTAA
3. GATTATATCT
4. GGATGGGGTT
5. GTCGCTTGTC

0.991
1.01
0.981
1
0.995

Kindly give each listed record's switch fluorescence ratio.
1. TACGTGCTTG
2. TCGATCCAAC
3. TTAGGGTG
4. GGGGTACTTT
5. CGTATGGTTC

0.989
1.06
0.992
0.991
0.996
